Test system: CD4+ T-cells and dendritic cells
Assay: I-MUNE assay: CD4+ T-cell proliferation to 15-mer peptide sets presented by dendritic cells
Assay type: cell-based, human
Conditions: peptide #49 variants; 69 donors
Method: All peptides were obtained from a commercial source (Mimotopes, San Diego, C-A). […] Monocytes were purified by adherence to plastic in AIM V medium (Gibco/Life Technologies). […] Treated dendritic cells were dislodged with 50 mM EDTA in PBS, washed in AIM V medium, counted, and resuspended in AIM V media at 2×10^5 cells/ml. […] For each individual buffy coat sample, the average CPM values obtained in the I-MUNE® assay for all of the peptides were analyzed. […]
Endpoint Label: effect of substitution on percent of responders to the epitope

| Sequence String | Observed |
| --- | --- |
| GTTRLYANASFGLFG (synthetic variant) [I155F] | had little effect |
| GTTRLYANASLGLFG (synthetic variant) [I155L] | had little effect |
